The reported measurements were obtained from ChEMBL document CHEMBL1146884.

systemTested: UniProt:P97266
Sequence (P97266 whole entry): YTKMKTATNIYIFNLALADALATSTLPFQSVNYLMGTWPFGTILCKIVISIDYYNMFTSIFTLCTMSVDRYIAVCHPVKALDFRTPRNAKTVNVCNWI
assayProcedure: Agonist activity at mu opioid receptor assessed as inhibition of electrically-evoked contraction of guinea pig ileum
Where a SMILES comes first, the peptide text is derived from it. [ ]: non-standard residue; d: D form. The star is where a group is joined. Dmt = Cc1cc(O)cc(C)c1C[C@H](N)C(=O)O; Tic = O=C(O)[C@@H]1Cc2ccccc2CN1; Cbz = O=C(OCc1ccccc1)*; NHPh = c1ccc(N*)cc1

- compound: "Cc1cc(O)cc(C)c1C[C@H](N)C(=O)N1Cc2ccccc2C[C@H]1C(=O)N[C@@H](CCCCN)C(=O)Nc1ccccc1 (H-[Dmt]-[Tic]-Lys-NHPh)"
  IC50 (µM): 1.25
- compound: "Cc1cc(O)cc(C)c1C[C@H](N)C(=O)N1Cc2ccccc2C[C@H]1C(=O)N[C@H](CCCCNC(=O)OCc1ccccc1)c1nc2ccccc2[nH]1"
  IC50 (µM): 0.0625
- compound: "Cc1cc(O)cc(C)c1C[C@H](N)C(=O)N1Cc2ccccc2C[C@H]1C(=O)N[C@@H](CCCCN)c1nc2ccccc2[nH]1"
  IC50 (µM): 0.0397
- compound: "Cc1cc(O)cc(C)c1C[C@H](N)C(=O)N1Cc2ccccc2C[C@H]1C(=O)N[C@@H](CCCCNC(=O)OCc1ccccc1)C(=O)Nc1ccccc1 (H-[Dmt]-[Tic]-Lys(Cbz)-NHPh)"
  IC50 (µM): 0.438

----------
systemTested: Mu-type opioid receptor (Rattus norvegicus)
Sequence (P33535 whole entry): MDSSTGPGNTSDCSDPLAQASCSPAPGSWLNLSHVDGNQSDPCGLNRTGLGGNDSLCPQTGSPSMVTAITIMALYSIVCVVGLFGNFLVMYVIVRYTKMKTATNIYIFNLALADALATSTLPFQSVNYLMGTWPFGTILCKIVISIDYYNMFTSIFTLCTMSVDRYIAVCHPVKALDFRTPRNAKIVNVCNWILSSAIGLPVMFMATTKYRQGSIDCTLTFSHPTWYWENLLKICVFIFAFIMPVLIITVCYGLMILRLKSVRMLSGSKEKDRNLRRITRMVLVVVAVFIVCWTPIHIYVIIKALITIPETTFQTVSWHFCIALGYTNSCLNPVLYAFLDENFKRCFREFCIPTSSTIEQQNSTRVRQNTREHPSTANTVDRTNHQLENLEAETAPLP
pKi: −log10 of the molar value. Where a SMILES comes first, the peptide text is derived from it. [ ]: non-standard residue; d: D form. The star is where a group is joined. Dmt = Cc1cc(O)cc(C)c1C[C@H](N)C(=O)O; Tic = O=C(O)[C@@H]1Cc2ccccc2CN1; Cbz = O=C(OCc1ccccc1)*; NHBn = c1ccc(CN*)cc1
Note to self: values exactly at 9 are yes. So pKi at or above 9 is yes, below is no.

- compound: "Cc1cc(O)cc(C)c1C[C@H](N)C(=O)N1Cc2ccccc2C[C@H]1C(=O)N[C@@H](CCCCN)C(=O)NCc1ccccc1 (H-[Dmt]-[Tic]-Lys-NHBn)"
  labelValue: "no"
- compound: "CC(=O)NCCCC[C@H](NC(=O)[C@@H]1Cc2ccccc2CN1C(=O)[C@@H](N)Cc1c(C)cc(O)cc1C)c1nc2ccccc2[nH]1"
  labelValue: "yes"
- compound: "Cc1cc(O)cc(C)c1C[C@H](N)C(=O)N1Cc2ccccc2C[C@H]1C(=O)NCC(=O)O (H-[Dmt]-[Tic]-Gly-OH)"
  labelValue: "no"
- compound: "CC(=O)NCCCC[C@H](NC(=O)[C@@H]1Cc2ccccc2CN1C(=O)[C@@H](N)Cc1c(C)cc(O)cc1C)C(=O)NCc1ccccc1 (H-[Dmt]-[Tic]-Lys(Ac)-NHBn)"
  labelValue: "no"
- compound: "Cc1cc(O)cc(C)c1C[C@H](N)C(=O)N1Cc2ccccc2C[C@H]1C(=O)N[C@@H](CCCCNC(=O)OCc1ccccc1)C(=O)NCc1ccccc1 (H-[Dmt]-[Tic]-Lys(Cbz)-NHBn)"
  labelValue: "no"
- compound: "Cc1cc(O)cc(C)c1C[C@H](N)C(=O)N1Cc2ccccc2C[C@H]1C(=O)N[C@H](CCCCNC(=O)OCc1ccccc1)c1nc2ccccc2[nH]1"
  labelValue: "yes"
- compound: "Cc1cc(O)cc(C)c1C[C@H](N)C(=O)N1Cc2ccccc2C[C@H]1C(=O)N[C@@H](CCCCN)c1nc2ccccc2[nH]1"
  labelValue: "yes"
- compound: "Cc1cc(O)cc(C)c1C[C@H](N)C(=O)N1Cc2ccccc2C[C@H]1C(=O)N[C@@H](CCCCNC(=O)OCc1ccccc1)c1nc2ccccc2[nH]1"
  labelValue: "yes"
